Provide the recorded log10(IC50) for the entries that follow.
Biological target: α4β1 integrin (Homo sapiens, UniProt P05556+P13612)
Construct: endogenous in cells; host or cells: Ramos cells
Sequence (P13612 34-1032): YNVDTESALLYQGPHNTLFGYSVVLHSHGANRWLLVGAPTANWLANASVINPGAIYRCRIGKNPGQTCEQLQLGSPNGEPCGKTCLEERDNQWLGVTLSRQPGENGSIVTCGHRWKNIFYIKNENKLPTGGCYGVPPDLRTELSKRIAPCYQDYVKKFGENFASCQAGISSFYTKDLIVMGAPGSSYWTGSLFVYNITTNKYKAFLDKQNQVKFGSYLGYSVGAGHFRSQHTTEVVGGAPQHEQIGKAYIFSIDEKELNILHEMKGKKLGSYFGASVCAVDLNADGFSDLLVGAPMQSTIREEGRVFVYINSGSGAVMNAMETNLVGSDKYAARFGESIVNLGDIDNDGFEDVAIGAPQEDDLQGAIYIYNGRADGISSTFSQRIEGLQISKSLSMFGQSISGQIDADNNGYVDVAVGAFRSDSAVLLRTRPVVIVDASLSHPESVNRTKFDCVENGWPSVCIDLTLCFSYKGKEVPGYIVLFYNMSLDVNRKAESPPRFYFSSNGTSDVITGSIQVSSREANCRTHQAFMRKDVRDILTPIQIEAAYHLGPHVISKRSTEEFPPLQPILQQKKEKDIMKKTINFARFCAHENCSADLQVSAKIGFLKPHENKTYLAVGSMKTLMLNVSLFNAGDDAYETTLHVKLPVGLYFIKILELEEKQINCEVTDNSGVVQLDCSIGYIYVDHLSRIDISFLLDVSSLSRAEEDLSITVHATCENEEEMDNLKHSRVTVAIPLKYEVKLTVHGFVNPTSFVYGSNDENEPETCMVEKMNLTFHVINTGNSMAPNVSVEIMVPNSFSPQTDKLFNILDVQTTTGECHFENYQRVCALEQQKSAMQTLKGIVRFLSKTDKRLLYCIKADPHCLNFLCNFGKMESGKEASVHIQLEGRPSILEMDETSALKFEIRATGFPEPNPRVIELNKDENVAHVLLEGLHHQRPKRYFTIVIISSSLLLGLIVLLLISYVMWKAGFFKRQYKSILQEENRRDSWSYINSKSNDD
Sequence (P05556 21-798): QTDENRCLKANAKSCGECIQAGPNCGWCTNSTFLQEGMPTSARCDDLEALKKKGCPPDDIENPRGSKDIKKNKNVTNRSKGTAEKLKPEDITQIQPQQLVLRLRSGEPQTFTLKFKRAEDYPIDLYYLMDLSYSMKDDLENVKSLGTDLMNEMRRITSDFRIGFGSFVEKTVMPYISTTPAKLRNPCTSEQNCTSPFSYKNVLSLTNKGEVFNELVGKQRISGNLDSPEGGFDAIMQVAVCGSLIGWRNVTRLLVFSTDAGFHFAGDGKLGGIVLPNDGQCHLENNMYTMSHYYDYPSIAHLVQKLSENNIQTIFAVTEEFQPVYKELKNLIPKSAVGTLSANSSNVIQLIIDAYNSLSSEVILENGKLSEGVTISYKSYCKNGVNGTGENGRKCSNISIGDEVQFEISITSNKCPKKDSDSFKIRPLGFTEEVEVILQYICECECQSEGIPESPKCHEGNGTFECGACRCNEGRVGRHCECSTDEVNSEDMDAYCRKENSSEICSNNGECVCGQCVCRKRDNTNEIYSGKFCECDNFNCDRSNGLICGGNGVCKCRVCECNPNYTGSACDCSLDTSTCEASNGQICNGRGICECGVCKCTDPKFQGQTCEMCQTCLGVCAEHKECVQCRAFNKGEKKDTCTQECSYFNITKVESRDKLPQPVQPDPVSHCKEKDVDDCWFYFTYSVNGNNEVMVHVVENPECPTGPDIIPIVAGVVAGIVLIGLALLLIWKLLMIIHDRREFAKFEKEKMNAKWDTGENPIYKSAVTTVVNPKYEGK
Test: Adhesion of calcein-labeled Ramos cells to CS1 (fibronectin) peptide conjugated ovalbumin
Type: cell-based
Details: Table 7; Ramos cell adhesion to CS1 conjugated ovalbumin; dose required to give 50% inhibition
On a log10 scale: recorded IC50, unit nM.

Challenge: Quick one: give measured log10(IC50) for `Cc1cn(Cc2ccccc2Cl)c(=O)c(NC(=O)N[C@@H](CC(=O)O)c2cnc3ccccc3c2)c1O`
Response given: 1.34

Challenge: Quick one: give measured log10(IC50) for `Cc1ccc([C@H](CC(=O)O)NC(=O)Nc2c(O)c(C)cn(Cc3cc(S(=O)(=O)N4CCCCC4)ccc3Cl)c2=O)cc1`
Response given: 1.43

Challenge: Quick one: give measured log10(IC50) for `Cc1cccc([C@H](CC(=O)O)NC(=O)Nc2c(O)c3c(n(Cc4ccccc4Cl)c2=O)CCC3)c1`
Response given: 0.70

Challenge: Quick one: give measured log10(IC50) for `Cc1cccc(Cl)c1Cn1c2c(c(O)c(NC(=O)N[C@@H](CC(=O)O)c3cccc(OC(F)(F)F)c3)c1=O)CCC2`
Response given: 1.04

Challenge: Quick one: give measured log10(IC50) for `COc1ccc(Cl)c(Cn2cc(C)c(O)c(NC(=O)N[C@@H](CC(=O)O)c3ccc(C)cc3)c2=O)c1`
Response given: 0.48

Challenge: Quick one: give measured log10(IC50) for `O=C(O)C[C@H](NC(=O)Nc1c(O)c2c(n(Cc3ccccc3Cl)c1=O)CCC2)c1ccc(C(F)(F)F)cc1`
Response given: 1.26

Challenge: Quick one: give measured log10(IC50) for `O=C(O)C[C@H](NC(=O)Nc1c(O)c2c(n(Cc3ccccc3Cl)c1=O)CCC2)c1cccc(OC(F)(F)F)c1`
Response given: 1.00

Challenge: Quick one: give measured log10(IC50) for `COc1ccccc1-c1cccc([C@H](CC(=O)O)NC(=O)Nc2c(O)c(C)cn(Cc3ccccc3Cl)c2=O)c1`
Response given: 1.18

Challenge: Quick one: give measured log10(IC50) for `Cc1cn(Cc2ccccc2Cl)c(=O)c(NC(=O)N[C@@H](CC(=O)O)c2cccc(-c3ccccc3C(F)(F)F)c2)c1O`
Response given: 2.20

Challenge: Quick one: give measured log10(IC50) for `CCOc1cccc(Cl)c1Cn1c2c(c(O)c(NC(=O)N[C@@H](CC(=O)O)c3cccc(OCC4CC4)c3)c1=O)CCC2`
Response given: 0.60

Challenge: Quick one: give measured log10(IC50) for `Cc1cn(Cc2ccccc2Cl)c(=O)c(NC(=O)N[C@@H](CC(=O)O)c2ccccc2)c1O`
Response given: 1.18

Challenge: Quick one: give measured log10(IC50) for `CCCOc1cccc([C@H](CC(=O)O)NC(=O)Nc2c(O)c(C)cn(Cc3c(Cl)cccc3OCC)c2=O)c1`
Response given: 0.48

Challenge: Quick one: give measured log10(IC50) for `CCOc1ccc2cc([C@H](CC(=O)O)NC(=O)Nc3c(O)c4c(n(Cc5ccccc5Cl)c3=O)CCC4)ccc2c1`
Response given: 1.18

Challenge: Quick one: give measured log10(IC50) for `Cc1ccc(-c2ccc([C@H](CC(=O)O)NC(=O)Nc3c(O)ccn(Cc4ccccc4Cl)c3=O)cc2)cc1`
Response given: 1.60

Challenge: Quick one: give measured log10(IC50) for `Cc1cccc(Cl)c1Cn1c2c(c(O)c(NC(=O)N[C@@H](CC(=O)O)c3ccc4c(c3)CCC4)c1=O)CCC2`
Response given: 1.00

Challenge: Quick one: give measured log10(IC50) for `O=C(O)C[C@H](NC(=O)Nc1c(O)c2c(n(Cc3ccccc3Cl)c1=O)CCC2)c1cccc(-c2ccccc2)c1`
Response given: 1.23
